Test: NCI Yeast Anticancer Drug Screen. Data for the rad18 strain (AID 177)
Settings: S. cerevisiae rad18 mutant growth inhibition; at 3.7 µM; stronger effect = higher value
The panel holds about 79,000 compounds, 15% with a hit somewhere; the sample as a whole holds those more often. Active and inactive are the calls of the source. Cut-off read from the data, not from the text of the source: active = growth inhibition above about 70%; inactive = the rest.
REPORTED ENDPOINT: growth inhibition

COC(=O)C1(C)CCc2c(ccc3ccccc23)C1=O (stereo unspecified) :: 6% (inactive)

-- ask Given the entry O=C1C=C(Cl)C(=O)C(c2ccc(Cl)cc2)=C1 , report its measured growth inhibition.
-- reply -4% (inactive)

-- ask Quick one: growth inhibition for O=C(O)CCCC1CCCc2c1ccc1ccccc21 (stereo unspecified) ?
-- reply -2% (inactive)

-- ask Find the recorded growth inhibition belonging to Oc1ccc2c(c1)C(O)CCCC2 (stereo unspecified) and report it.
-- reply 10% (inactive)

-- ask Look at this compound and give its reported growth inhibition. O=[N+]([O-])c1ccc2c(c1)/C(=N/N=C1c3ccccc3Cc3ccccc31)c1cc([N+](=O)[O-])cc([N+](=O)[O-])c1-2
-- reply 81% (active)

-- ask Look at this compound and give its reported growth inhibition. CN(C)CCNC(=O)c1cccc2cc([N+](=O)[O-])ccc12
-- reply 5% (inactive)

-- ask Looking for the measured growth inhibition of O=C(NO)Nc1cc(Cl)cc(Cl)c1 , can you help?
-- reply 34% (inactive)

-- ask Give its growth inhibition value. Item: COc1cc(CSc2ccc(O)cc2)cc(O)c1O
-- reply 1% (inactive)

-- ask Given the compound O=C(NCCCNCCN1C(=O)c2cccc3cc([N+](=O)[O-])cc(c23)C1=O)c1cc(-c2ccccc2)nc2ccccc12 , what is its reported growth inhibition?
-- reply -2% (inactive)

-- ask Bench note: what growth inhibition did CCCCCCCCCCCCCCCCOP(=O)(O)OCC(N)C(=O)O (stereo unspecified) show?
-- reply -11% (inactive)

-- ask Look at this compound and give its reported growth inhibition. Cc1ccc([N+]2=NC(c3ccccc3)=NN(c3ccccc3)C2)cc1
-- reply 11% (inactive)

###

Assay: NCI Yeast Anticancer Drug Screen. Data for the mlh1 strain (AID 171);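 note: 0% = growth of vehicle-treated control cultures of the same strain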
Conditions: S. cerevisiae mlh1 strain growth inhibition; at 33.0 µM
Method: Growth inhibition of yeast strains with defined genetic alterations is measured as a screen for potential anti-cancer activity. Selected strains with alterations in DNA damage repair or cell cycle control were exposed to compounds and growth inhibition was measured relative to vehicle treated controls. The strain used in this assay is mlh1
This is part of a sample that, as a whole, favours compounds with a hit. Of some 79,000 tested, about 15% had one in any assay. The source made the active and inactive calls. Rule as the data show it: active = growth inhibition above about 70%; inactive = the rest.
Please reply with one of these outcomes: active, inactive

-- ask I would be grateful if you could indicate the recorded call for Oc1ccc2ccccc2c1CCc1c(O)ccc2ccccc12 .
-- reply active

-- ask What outcome does the record of this test show for CC(C)c1ccc(NC(=S)NC(=O)c2ccccc2)cc1 ?
-- reply inactive

-- ask Would you mind telling me which call this test gave CS(=O)(=O)OCCN(CCOS(C)(=O)=O)c1ccc(C=Nc2ccc(-c3csc(COc4ccccc4)n3)cc2)cc1 ?
-- reply active

-- ask Per the records of this test, what outcome belongs to COc1c(O)c(C=O)c(Br)c(C=O)c1O ?
-- reply inactive

-- ask For CN(C)CCNc1ccc2ncnc3c2c1C(=O)c1ccccc1-3 , which call appears in the assay record?
-- reply inactive

-- ask Call for entry Cc1ccc([N+]2=NC(c3ccccc3)=NN(c3ccccc3)C2)cc1 :
-- reply active

Source listed as PubChem BioAssay (NCI).
